Target: HDAC6 (Homo sapiens)
Sequence (Q9UBN7 1-1215): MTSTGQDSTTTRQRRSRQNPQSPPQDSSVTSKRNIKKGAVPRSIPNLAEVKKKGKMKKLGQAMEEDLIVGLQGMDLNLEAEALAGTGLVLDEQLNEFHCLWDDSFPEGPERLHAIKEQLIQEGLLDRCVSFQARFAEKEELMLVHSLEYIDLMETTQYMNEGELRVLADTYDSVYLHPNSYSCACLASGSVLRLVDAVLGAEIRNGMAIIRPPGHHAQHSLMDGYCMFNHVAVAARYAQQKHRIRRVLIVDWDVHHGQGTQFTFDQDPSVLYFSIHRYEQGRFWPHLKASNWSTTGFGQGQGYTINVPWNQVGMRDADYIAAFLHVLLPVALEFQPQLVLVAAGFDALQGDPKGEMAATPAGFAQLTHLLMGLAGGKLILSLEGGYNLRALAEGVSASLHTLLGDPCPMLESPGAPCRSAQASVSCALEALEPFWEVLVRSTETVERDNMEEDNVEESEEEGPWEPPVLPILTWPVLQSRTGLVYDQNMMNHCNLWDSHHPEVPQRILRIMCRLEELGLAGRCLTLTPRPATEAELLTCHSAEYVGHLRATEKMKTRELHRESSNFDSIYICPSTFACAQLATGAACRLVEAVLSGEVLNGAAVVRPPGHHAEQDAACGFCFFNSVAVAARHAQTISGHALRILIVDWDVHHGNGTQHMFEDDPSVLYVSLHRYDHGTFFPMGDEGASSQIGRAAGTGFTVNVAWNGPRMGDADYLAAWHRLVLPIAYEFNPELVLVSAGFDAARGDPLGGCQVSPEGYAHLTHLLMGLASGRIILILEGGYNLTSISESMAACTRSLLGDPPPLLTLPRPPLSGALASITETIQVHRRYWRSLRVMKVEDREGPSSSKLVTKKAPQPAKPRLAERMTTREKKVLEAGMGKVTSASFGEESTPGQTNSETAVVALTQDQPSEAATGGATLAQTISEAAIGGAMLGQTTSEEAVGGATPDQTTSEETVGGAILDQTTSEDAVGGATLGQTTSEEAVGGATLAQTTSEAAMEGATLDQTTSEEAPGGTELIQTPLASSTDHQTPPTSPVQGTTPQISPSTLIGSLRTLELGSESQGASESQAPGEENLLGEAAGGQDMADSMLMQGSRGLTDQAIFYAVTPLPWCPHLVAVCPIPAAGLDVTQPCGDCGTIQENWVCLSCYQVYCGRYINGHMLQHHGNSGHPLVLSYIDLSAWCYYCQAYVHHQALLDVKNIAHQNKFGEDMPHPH
Experiment: HDAC inhibitory activity, fluorescence-coupled acetylated peptide substrate assay
Assay type: biochemical
Settings: ratio of IC50 HDAC8 to HDAC6
Test Readout: Selection Ratio HDAC8/6

The cases that follow already have their Selection Ratio HDAC8/6 on record.
Cc1nc(N(C)c2ccc(OCCCC(=O)NO)cc2)c2ccccc2n1 ... 7.5
CN(c1ccc(Oc2ccc(C(=O)NO)cn2)cc1)c1ncnc2ccccc12 ... 194.4
Cc1nc(N(C)c2ccc(OCCCCCC(=O)NO)cc2)c2ccccc2n1 ... 44.4
Cc1nc(N(C)c2ccc(Oc3ccc(C(=O)NO)cn3)cc2)c2ccccc2n1 ... 218.1
Cc1nc(N(C)c2ccc(OCc3ccc(C(=O)NO)cc3)cc2)c2ccccc2n1 ... 371.3
CN(c1ccc(OCCCCCC(=O)NO)cc1)c1ncnc2ccccc12 ... 55.7
Cc1nc(N(C)c2ccc(Oc3ccc(C(=O)NO)cc3)cc2)c2ccccc2n1 ... 68.5
Cc1nc(N(C)c2ccc(OCC(=O)NO)cc2)c2ccccc2n1 ... 137.3
CN(c1ccc(OCCCC(=O)NO)cc1)c1ncnc2ccccc12 ... 72.3
Cc1nc(N(C)c2ccc(OCCCCC(=O)NO)cc2)c2ccccc2n1 ... 29.8

(I) CN(c1ccc(OCc2ccc(C(=O)NO)cc2)cc1)c1ncnc2ccccc12
(II) CN(c1ccc(OCCCCC(=O)NO)cc1)c1ncnc2ccccc12
Query block: Smaller Selection Ratio HDAC8/6 value, I vs II ? The response must carry the label of the picked entry.
Result block: II
(II: 27.1, I: 167.6)

From: patent US10532053B2
